System: SF-268
METHOD DESCRIPTION: NCI tumour cell line growth inhibition, 48 h
The source made the active and inactive calls. No stated cut-off is given here; in the data, active = GI50 up to about 1.1 µM and inactive = higher.
Reported GI50 values are given for each entry in this list.

{"MOLECULE": "O=C(O)CCC(NC(=O)c1ccc(Nc2cnc3ccc(C(F)(F)F)cc3n2)cc1)C(=O)O (configuration not stated)", "TESTED ON": "SF-268", "GI50": "> 100 µM (inactive)"}
{"MOLECULE": "CCOC(=O)c1c(N=P(c2ccccc2)(c2ccccc2)c2ccccc2)nnc(-c2ccccc2)c1-c1ccccc1", "TESTED ON": "SF-268", "GI50": "> 100 µM (inactive)"}
{"MOLECULE": "NNc1nncc2[nH]nnc12", "TESTED ON": "SF-268", "GI50": "> 100 µM (inactive)"}
{"MOLECULE": "N#CCC1C2CC3C(C2=O)C13 (configuration not stated)", "TESTED ON": "SF-268", "GI50": "> 100 µM (inactive)"}
{"MOLECULE": "O=C(O)c1ccc(P(=O)(O)c2ccc(C(=O)O)cc2Br)c(Br)c1", "TESTED ON": "SF-268", "GI50": "> 100 µM (inactive)"}
{"MOLECULE": "N#C/C(=C\\c1cc2ccccc2c2ccccc12)c1ccccc1", "TESTED ON": "SF-268", "GI50": "8.17 µM (inactive)"}
{"MOLECULE": "O=[N+]([O-])c1ccc2nc3c(nc2c1)-c1c2ccccc2cc2cccc-3c12", "TESTED ON": "SF-268", "GI50": "13.8 µM (inactive)"}
{"MOLECULE": "CC(C)(C)OC(=O)NNC(=O)C1Cc2ccccc2OC1=O (configuration not stated)", "TESTED ON": "SF-268", "GI50": "> 100 µM (inactive)"}
{"MOLECULE": "COC(=O)/C(=N/NC(=O)C[N+](C)(C)C)C(C(=O)OC)C(=O)C(=O)Nc1ccc(F)cc1 (configuration not stated)", "TESTED ON": "SF-268", "GI50": "> 100 µM (inactive)"}
{"MOLECULE": "C=CCN(N=O)C(=O)N(CCCC(NC(C)=O)C(=O)NCc1ccccc1)Cc1ccccc1 (configuration not stated)", "TESTED ON": "SF-268", "GI50": "62.2 µM (inactive)"}
{"MOLECULE": "COC(=O)C1=C(OC(=O)/C=C/c2ccc(Cl)cc2)C(C(=O)OC)[C@@]2(O)[C@@H](C(=O)OC)[C@H](C)C[C@@H]1[C@@H]2C(=O)OC (some centres not stated)", "TESTED ON": "SF-268", "GI50": "16.7 µM (inactive)"}
{"MOLECULE": "Cc1cc(Cl)ccc1NC(=O)CCCC(=O)C1CCC/C1=N\\NC(=O)CC#N (configuration not stated)", "TESTED ON": "SF-268", "GI50": "> 100 µM (inactive)"}
{"MOLECULE": "N#CC(C(=O)CCC(=O)Nc1cccc(Cl)c1)c1ccccc1 (configuration not stated)", "TESTED ON": "SF-268", "GI50": "> 100 µM (inactive)"}
{"MOLECULE": "CC(=O)c1sc2c(c1OC(=O)c1cccs1)c(=O)n(-c1ccccc1)c(=S)n2-c1ccccc1", "TESTED ON": "SF-268", "GI50": "6.07 µM (inactive)"}
{"MOLECULE": "O=C1NCC(NC(=O)C(F)(F)F)c2c(Br)sc(Br)c21 (configuration not stated)", "TESTED ON": "SF-268", "GI50": "> 100 µM (inactive)"}
{"MOLECULE": "Nc1nc2c(ncn2C2OC(CO)C(O)C2N)c(=O)[nH]1 (configuration not stated)", "TESTED ON": "SF-268", "GI50": "> 100 µM (inactive)"}
{"MOLECULE": "CC(C)(C)OC(=O)N1CCCC1C(=O)NCCNc1ccc(NCCNC(=O)C2CCCN2C(=O)OC(C)(C)C)c2c1C(=O)c1ccccc1C2=O (configuration not stated)", "TESTED ON": "SF-268", "GI50": "31.3 µM (inactive)"}

* * *

Test system: UACC-257
METHOD DESCRIPTION: NCI tumour cell line growth inhibition, 48 h
Calls of active or inactive are those of the source. Cut-off read from the data, not from the text of the source: active = GI50 up to about 1.1 µM and inactive = higher.

{"COMPOUND": "COc1cc(C2C(C(=O)Nc3ccc([N+](=O)[O-])cc3)=C(C)NC(C)=C2C(=O)Nc2ccc([N+](=O)[O-])cc2)ccc1O", "GI50": "24.2 µM (inactive)"}
{"COMPOUND": "NC(=S)N/N=C(\\C(=O)Nc1cccc([N+](=O)[O-])c1)c1nc2ccc([N+](=O)[O-])cc2nc1O", "GI50": "7.8 µM (inactive)"}
{"COMPOUND": "O=c1nc2occc2cn1C1CC(O)C(CO)O1 (stereo not given)", "GI50": "> 100 µM (inactive)"}
{"COMPOUND": "CSCCCN(CCCSC)CCCSC", "GI50": "> 100 µM (inactive)"}
{"COMPOUND": "COc1ccccc1NC(=O)CC(=O)NNCC(=O)Nc1nnc(-c2ccccc2)o1", "GI50": "> 100 µM (inactive)"}

* * *

Recorded GI50 values for a group of compounds are listed next.
Test system: IGROV-1
METHOD DESCRIPTION: NCI tumour cell line growth inhibition, 48 h
Active and inactive are the calls of the source. Rule as the data show it: active = GI50 up to about 1.1 µM and inactive = higher.

{"COMPOUND": "COc1ccc(NC(=S)N/N=C/c2c(C)n(C)n(-c3ccccc3)c2=O)cc1", "GI50": "47.5 µM (inactive)"}
{"COMPOUND": "C=C1C(=O)[C@]23[C@H](O)[C@H]1CC[C@H]2[C@@]12CO[C@@]3(O)C[C@@H]1C(C)(C)CC[C@@H]2O", "GI50": "7.14 µM (inactive)"}
{"COMPOUND": "CC(NC(=O)Cc1ccc(OP(=O)(OCc2ccc([N+](=O)[O-])o2)N(C)CCCCCl)cc1)c1ccc(OCC2CCCCC2)c(C(N)=O)c1 (stereo not drawn)", "GI50": "1.91 µM (inactive)"}

* * *

Test system: HCC 2998
METHOD DESCRIPTION: NCI tumour cell line growth inhibition, 48 h
Calls of active or inactive are those of the source. Rule as the data show it: active = GI50 up to about 1.1 µM and inactive = higher.
Each entry below lists one item and its recorded GI50 value.
OBSERVED PROPERTY: GI50

{"COMPOUND": "O=C(/C=C1/NC(=O)CS1)Nc1ccccc1", "TESTED ON": "HCC 2998", "RESULT": "> 100 µM (inactive)"}
{"COMPOUND": "COC(=O)/C(=N/NC(=O)C[N+](C)(C)C)C(C(=O)OC)C(=O)C(=O)Nc1ccc(F)cc1 (stereo not drawn)", "TESTED ON": "HCC 2998", "RESULT": "> 100 µM (inactive)"}
{"COMPOUND": "COC(=O)c1ccc(C(=O)OC)c2nc3cc(C)ccc3nc12", "TESTED ON": "HCC 2998", "RESULT": "> 100 µM (inactive)"}
{"COMPOUND": "COCCOC1=CC(=O)c2c(O)ccc(O)c2C1=O", "TESTED ON": "HCC 2998", "RESULT": "2.17 µM (inactive)"}
{"COMPOUND": "CCOc1cc2c[n+](C)c3c4cc(OC)c(OC)cc4ccc3c2cc1OC", "TESTED ON": "HCC 2998", "RESULT": "> 100 µM (inactive)"}
{"COMPOUND": "Cc1ccc(S(=O)(=O)SCc2ccccc2)cc1", "TESTED ON": "HCC 2998", "RESULT": "24.2 µM (inactive)"}
{"COMPOUND": "Cc1ccc(C)c(NC(=O)CCc2nnc(S)[nH]2)c1", "TESTED ON": "HCC 2998", "RESULT": "> 100 µM (inactive)"}
{"COMPOUND": "COC(=O)CCC(NC(=S)N/N=C(\\C)c1ccc[nH]1)C(=O)OC (stereo not drawn)", "TESTED ON": "HCC 2998", "RESULT": "> 100 µM (inactive)"}
{"COMPOUND": "Cc1sc2nc3n(c(=O)c2c1C)N=C(c1ccc(Cl)cc1)CS3", "TESTED ON": "HCC 2998", "RESULT": "> 100 µM (inactive)"}
{"COMPOUND": "COc1cc2c(cc1OCCCC(=O)Nc1cc(C(=O)Nc3cc(C(=O)Nc4cc(C(=O)NCCCN(C)C)n(C)c4)n(C)c3)n(C)c1)N=C[C@@H]1CCCN1C2=O", "TESTED ON": "HCC 2998", "RESULT": "14.2 µM (inactive)"}
{"COMPOUND": "N#Cc1ccc(CSC2=C(c3ccc(Cl)cc3)S/C(=C3\\SC(SCc4ccc(C#N)cc4)=C(c4ccc(Cl)cc4)S3)S2)cc1", "TESTED ON": "HCC 2998", "RESULT": "> 100 µM (inactive)"}
{"COMPOUND": "C=CCOc1ccc(C(=N/NC(=O)c2ccccc2)/N=N/c2ccccc2)cc1OC", "TESTED ON": "HCC 2998", "RESULT": "37.5 µM (inactive)"}
{"COMPOUND": "CCOc1ccc(/N=C/c2cccc3cccnc23)cc1", "TESTED ON": "HCC 2998", "RESULT": "> 100 µM (inactive)"}
{"COMPOUND": "N#C/C(=C\\c1c[nH]c2ccccc12)C(=O)c1ccc(O)c(O)c1", "TESTED ON": "HCC 2998", "RESULT": "32.5 µM (inactive)"}
{"COMPOUND": "O=[N+]([O-])C(=C1Nc2ccccc2N1)/C(Cl)=C(/Cl)N1CCOCC1", "TESTED ON": "HCC 2998", "RESULT": "> 100 µM (inactive)"}
{"COMPOUND": "CC(NC(C#N)CC12CC3CC(CC(C3)C1)C2)c1ccccc1 (stereo not drawn)", "TESTED ON": "HCC 2998", "RESULT": "> 100 µM (inactive)"}
{"COMPOUND": "COc1cc2c(oc(=O)c3c4occc4cc(OC)c23)c2cccc(OCc3ccccc3)c12", "TESTED ON": "HCC 2998", "RESULT": "> 100 µM (inactive)"}
{"COMPOUND": "Cc1[nH]c2cc([N+](=O)[O-])ccc2c1[N+](=O)[O-]", "TESTED ON": "HCC 2998", "RESULT": "15 µM (inactive)"}
